Entry source: PubChem BioAssay AID296

# T/C listing for each entry below
system: MX-1 breast xenograft, nude mice, tumor weight T/C; experiment: NCI In Vivo Anticancer Drug Screen. Data for tumor model Human Mammary Carcinoma MX-1 Xenograft (intrarenal inoculation) in NU/NU Swiss (nude) mice; details: endpoint: mean tumor weight change; dose: 400.0 mg/kg/injection; schedule: Q04DX003 (sc); vehicle: saline; higher = larger tumour
Inconclusive results are not listed.
MEASURED PROPERTY: T/C

- MOLECULE: "NCCc1cc(O)c(O)c(O)c1"
  TARGET DESC: "MX-1 breast xenograft, nude mice, tumor weight T/C"
  MEASURED PROPERTY: "T/C"
  RESULT: "154 % of control"
- MOLECULE: "CCOC(=O)C(N)CSC(=O)NC (stereo not drawn)"
  TARGET DESC: "MX-1 breast xenograft, nude mice, tumor weight T/C"
  MEASURED PROPERTY: "T/C"
  RESULT: "15 % of control"
- MOLECULE: "CN1CCN(c2ccc3nc(-c4ccc5nc(-c6ccc(O)cc6)[nH]c5c4)[nH]c3c2)CC1"
  TARGET DESC: "MX-1 breast xenograft, nude mice, tumor weight T/C"
  MEASURED PROPERTY: "T/C"
  RESULT: "52 % of control"
- MOLECULE: "Nc1ncnc2c1ncn2C1OC(CO)C(O)C1O (stereo not drawn)"
  TARGET DESC: "MX-1 breast xenograft, nude mice, tumor weight T/C"
  MEASURED PROPERTY: "T/C"
  RESULT: "91 % of control"
- MOLECULE: "c1csc(C[N+]23CN4CN(CN(C4)C2)C3)c1"
  TARGET DESC: "MX-1 breast xenograft, nude mice, tumor weight T/C"
  MEASURED PROPERTY: "T/C"
  RESULT: "93 % of control"
- MOLECULE: "CCC(C(=O)O)C(=O)O.[NH-]CC1CCCC[N-]1.[Pt+2]"
  TARGET DESC: "MX-1 breast xenograft, nude mice, tumor weight T/C"
  MEASURED PROPERTY: "T/C"
  RESULT: "2 % of control"
- MOLECULE: "CC1(C)COCN1COC1CCCCC1"
  TARGET DESC: "MX-1 breast xenograft, nude mice, tumor weight T/C"
  MEASURED PROPERTY: "T/C"
  RESULT: "78 % of control"
- MOLECULE: "Nc1ncn(C2OC(CO)C(O)C2O)c(=O)n1 (stereo not drawn)"
  TARGET DESC: "MX-1 breast xenograft, nude mice, tumor weight T/C"
  MEASURED PROPERTY: "T/C"
  RESULT: "15 % of control"
- MOLECULE: "CN(C)N=Nc1cn[nH]c1C(N)=O"
  TARGET DESC: "MX-1 breast xenograft, nude mice, tumor weight T/C"
  MEASURED PROPERTY: "T/C"
  RESULT: "49 % of control"
- MOLECULE: "N=c1ccn2c(n1)OC1C(O)C(CO)OC12 (stereo not drawn)"
  TARGET DESC: "MX-1 breast xenograft, nude mice, tumor weight T/C"
  MEASURED PROPERTY: "T/C"
  RESULT: "95 % of control"
- MOLECULE: "O=C1c2ccccc2C(=O)c2c(NCCNCCO)ccc(O)c21"
  TARGET DESC: "MX-1 breast xenograft, nude mice, tumor weight T/C"
  MEASURED PROPERTY: "T/C"
  RESULT: "37 % of control"
- MOLECULE: "NC1=NCN(C2OC(CO)C(O)C2O)C(=O)N1 (stereo not drawn)"
  TARGET DESC: "MX-1 breast xenograft, nude mice, tumor weight T/C"
  MEASURED PROPERTY: "T/C"
  RESULT: "2 % of control"
- MOLECULE: "NCCCNCCSP(=O)(O)O"
  TARGET DESC: "MX-1 breast xenograft, nude mice, tumor weight T/C"
  MEASURED PROPERTY: "T/C"
  RESULT: "91 % of control"
